molecular target: Mannose-6-phosphate isomerase (Homo sapiens) (UniProt P34949); assay: MPI inhibition at elevated mannose 6-phosphate – biochemical, fluorescence intensity, high mannose 6-phosphate, primary screen (AID 1220); conditions: recombinant PMI enzyme, coupled fluorescence intensity; at 20 µM
Sequence (P34949 whole entry, looked up): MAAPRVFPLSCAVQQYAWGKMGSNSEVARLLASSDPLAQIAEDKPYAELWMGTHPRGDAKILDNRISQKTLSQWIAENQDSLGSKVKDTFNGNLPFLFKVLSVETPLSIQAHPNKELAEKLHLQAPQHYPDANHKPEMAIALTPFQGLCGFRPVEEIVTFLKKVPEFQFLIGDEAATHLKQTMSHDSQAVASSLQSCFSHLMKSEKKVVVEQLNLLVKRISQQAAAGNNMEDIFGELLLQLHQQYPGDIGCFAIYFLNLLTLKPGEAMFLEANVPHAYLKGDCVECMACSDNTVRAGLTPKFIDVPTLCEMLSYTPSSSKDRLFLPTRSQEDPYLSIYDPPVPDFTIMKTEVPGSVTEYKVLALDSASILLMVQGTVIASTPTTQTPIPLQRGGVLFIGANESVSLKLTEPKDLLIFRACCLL
Screen size: about 190,000 compounds; about 1,300 (0.68%) were called active. Cut-off read from the data, not from the text of the source: active = inhibition above about 50%; inactive = the rest. Shown is part of a subset that was picked to be rich in actives.
In this exercise, the only acceptable responses are active, inactive

Data request: Short answer needed: outcome of this test for `COc1cc(N)c(Cc2nccc3cc(OC)c(OC)cc23)cc1OC` ?
Data returned: active

Data request: Dear all, I need the recorded test outcome for `COc1cc2ccnc(Cc3cccc(OC)c3OC)c2cc1OC` , thank you.
Data returned: inactive

Data request: Please state the recorded outcome for this compound: `O=C(CN1CCN(C2CCCCC2)CC1)Nc1ccc(Br)cc1`
Data returned: inactive

Data request: Short answer needed: outcome of this test for `COc1cccc(C(=O)Nc2cccc(-c3ccc4nncn4n3)c2)c1OC` ?
Data returned: inactive

Data request: // param item: `CCOC(=O)Nc1cc(OC)c(OC)cc1Cc1nccc2cc(OC)c(OC)cc12` ; yields the recorded call
Data returned: inactive

Data request: Hi team, can someone confirm the assay call for `CCOC(=O)c1nc(N)c(=O)n(-c2ccc(C)cc2)n1` ?
Data returned: inactive

###

target: Mannose-6-phosphate isomerase (Homo sapiens); test: MPI inhibition at elevated mannose 6-phosphate – biochemical, fluorescence intensity, high mannose 6-phosphate, primary screen (AID 1220); conditions: recombinant PMI enzyme, coupled fluorescence intensity; at 20 µM; stronger effect = higher value
The campaign covered roughly 190,000 compounds. About 1,300 (0.68%) were called active. The full list was thinned out, with actives kept by preference.
MEASURED ENDPOINT: inhibition (%)
Report as a plain number; the unit % is understood.

Data request: Please report the recorded inhibition for `CCn1cc(C(=O)O)c(=O)c2cnc(N3CCNCC3)nc21` .
Data returned: 14.5

Data request: What value of measured inhibition is listed for `C=CCNC(=S)N1CCN(c2ncc3c(=O)c(C(=O)O)cn(CC)c3n2)CC1` ?
Data returned: 14.8

Data request: Record request: inhibition value, item `CCCN1CCC(NC(=S)Nc2ccc(OC)c(OC)c2)CC1`
Data returned: -3

Data request: Request the reported inhibition associated with `CCOCCCn1c(=N)c(C(=O)NCc2ccc3c(c2)OCO3)cc2c(=O)n3ccccc3nc21`
Data returned: -7.7

Data request: What value of inhibition has been recorded for this entry: `O=C(Nc1cccc2ccccc12)N1CCN(c2ccccc2)CC1`
Data returned: 15.4

Data request: Entry under review: `O=C1C(=Cc2ccco2)C(=O)c2ccccc21` . Reported inhibition?
Data returned: -11.7

###

biological target: Mannose-6-phosphate isomerase (Homo sapiens) (UniProt P34949); test: MPI inhibition at elevated mannose 6-phosphate – biochemical, fluorescence intensity, high mannose 6-phosphate, primary screen (AID 1220); settings: recombinant PMI enzyme, coupled fluorescence intensity; at 20 µM; stronger effect = higher value
Among all 190,000 compounds or so, about 1,300 (0.68%) were called active. This excerpt belongs to a sample that is enriched for actives.
MEASURED ENDPOINT: inhibition

Data request: Param readout = inhibition; param system = Mannose-6-phosphate isomerase (Homo sapiens) (UniProt P34949); param query = `CN(C=[N+](C)C)c1cccc2c1C(=O)c1ccccc1C2=O` ; response: value
Data returned: 39.3% (inactive)

Data request: Hello, I am looking for reported inhibition with Mannose-6-phosphate isomerase (Homo sapiens) (UniProt P34949) for `COc1ccc(OC)c2c1C(=O)c1ccccc1C2=O` . Could you help?
Data returned: -55.2% (inactive)

Data request: # returns recorded inhibition (system: Mannose-6-phosphate isomerase (Homo sapiens) (UniProt P34949)) for `Cc1onc(-c2ccccc2)c1C(=O)Oc1cccnc1`
Data returned: -0.5% (inactive)

Data request: API: value(readout=inhibition, system=Mannose-6-phosphate isomerase (Homo sapiens) (UniProt P34949)) for record `CCOc1ccc(C(=O)N[C@H](C(=O)Nc2ccc(OC)c(S(=O)(=O)N3CCOCC3)c2)C(C)C)cc1`
Data returned: 10.3% (inactive)

Data request: Form entry - test system: Mannose-6-phosphate isomerase (Homo sapiens) (UniProt P34949); read-out: inhibition; compound: O=C(Nc1cccc(S(=O)(=O)N2CCCCC2)c1)c1ccc(OCC2CCCO2)cc1 (stereo not given)
Data returned: 2.6% (inactive)

Values compiled from PubChem BioAssay AID1220.
